Target: T1, fHbp m002335 (Neisseria meningitidis; fHbp …, chimera)
T1 chain: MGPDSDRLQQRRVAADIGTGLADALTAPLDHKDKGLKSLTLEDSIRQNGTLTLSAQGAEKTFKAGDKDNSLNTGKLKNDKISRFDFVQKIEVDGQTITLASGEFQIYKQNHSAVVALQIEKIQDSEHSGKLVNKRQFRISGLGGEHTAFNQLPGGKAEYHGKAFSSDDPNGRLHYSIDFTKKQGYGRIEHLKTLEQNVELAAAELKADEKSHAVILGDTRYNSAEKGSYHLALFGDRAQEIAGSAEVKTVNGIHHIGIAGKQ
Test: BLI
Conditions: both partners purified
measured_parameter: Kd
Please answer in the form of a number followed by its unit of measurement.

Note to self: Kd recorded for mAb 1E6 (human) (antibody, V domains shown, source: Expi293, purified (MabSelect SuRe, SEC); copies: 2 + 2) VH: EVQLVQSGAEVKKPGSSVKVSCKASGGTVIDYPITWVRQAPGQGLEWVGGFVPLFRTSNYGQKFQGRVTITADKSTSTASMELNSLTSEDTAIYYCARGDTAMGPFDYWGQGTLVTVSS VL: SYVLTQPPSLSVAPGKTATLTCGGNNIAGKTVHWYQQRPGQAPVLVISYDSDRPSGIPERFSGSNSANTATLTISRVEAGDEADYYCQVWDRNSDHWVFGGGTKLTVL was 137 pM
